Numbers sourced from the emibetuzumab library of Makowski et al. (2022).

B1: VH:VL chains; a variant is named by its letters at X, in order (parent)
chain 1: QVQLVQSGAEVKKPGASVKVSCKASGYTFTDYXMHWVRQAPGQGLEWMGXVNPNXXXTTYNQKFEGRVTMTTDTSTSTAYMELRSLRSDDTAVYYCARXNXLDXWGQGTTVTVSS
chain 2: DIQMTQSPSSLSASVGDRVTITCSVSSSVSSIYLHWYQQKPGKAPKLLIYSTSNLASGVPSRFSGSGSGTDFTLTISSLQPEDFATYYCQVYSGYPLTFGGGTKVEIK

Variants of: B1
Experiment: yeast display scFab, FACS + sequencing
Value Kind: non-specific binding call

Known results for variants:
| Variant Identifier | non-specific binding call |
| --- | --- |
| YTGTSAGD | no binding |
| YRARGAWD | binds |
| DTAGDAVV | no binding |
| AKATADVD | binds |
| SRRRGAWY | binds |

API: the following record is the query input.
Request: If you can, please state the reported non-specific binding call value of "YKTRGSAD" .
Result: binds
